- Tested on: PC12 cells
- method-summary: Cell viability / proliferation of PC12 cells (MTS)
- Assay type: cell-based
- measurement-conditions: Rattus norvegicus, PC-12
pIC50: −log10 of the molar value.
measured-attribute: pIC50

{"columns": ["mol-smiles", "assayed-target", "measured-attribute", "number"],
 "data": [
  ["CC(C)CCOc1ccc(-c2cc(C(F)(F)F)n[nH]2)c(O)c1-c1cc(C(F)(F)F)cc(C(F)(F)F)c1", "PC12 cells", "pIC50", 5.09]
]}

====

- method-summary: Potency code of Table 2 (assay not stated)
measured-attribute: Potency code

{"columns": ["mol-smiles", "result"],
 "data": [
  ["COc1ccc(-c2cc(C(F)(F)F)nn2C)c(O)c1-c1cc(C(F)(F)F)cc(C(F)(F)F)c1", "+++ (10-30 +++)"],
  ["CCCCOc1ccc(-c2cc(C(F)(F)F)n(C)n2)c(O)c1-c1cc(C(F)(F)F)cc(C(F)(F)F)c1", "+ (>40 +)"],
  ["Oc1cc(OCc2ccc(Cl)cc2)ccc1-c1cc(C(F)(F)F)nc(-c2ccc(F)cc2)n1", "+ (>40 +)"],
  ["CCc1[nH]nc(-c2ccc(OCc3ccc(Cl)cc3)cc2O)c1-c1cccc(OC)c1", "+ (>40 +)"],
  ["CCc1ccc(Oc2c(-c3ccc(OCCc4ccc(Cl)cc4)cc3O)n[nH]c2C(F)(F)F)cc1", "+++ (10-30 +++)"],
  ["Cc1ccc(-c2cn(C)nc2-c2ccc(OCc3ccc(Cl)cc3)cc2O)cc1", "+ (>40 +)"]
]}
